# Tested on: MCF-7 cells
# PROCEDURE_TEXT: Crystal violet assay, antiproliferative effects in MCF-7 cells
# Assay type: cell-based
# CONDITION_INFO: MCF-7 (COX-negative), 72 h
# Procedure: In order to investigate the cytotoxic effects in MCF-7 and HT-29 cells, an already published crystal violet assay was used. […] The absorbance was measured at 590 nm. Mean values ± SD of ≥2 independent experiments were calculated, and the activity of the complexes was expressed as the cell mass of the vehicle-treated control, which was set to 100%. […]
Label key: 1 means IC50 under 50 µM; 0 means IC50 of 50 µM or more.

CC(=O)Oc1cccc(C)c1C(=O)OC[CH]1[CH2][Pt-]1([Cl])([Cl])[Cl].[K+] (stereo not shown) = 0
CC(=O)Oc1c(Cl)cccc1C(=O)OC[CH]1[CH2][Pt-]1([Cl])([Cl])[Cl].[K+] (stereo not shown) = 0
CC(=O)Oc1ccc(F)cc1C(=O)OC[CH]1[CH2][Pt-]1([Cl])([Cl])[Cl].[K+] (stereo not shown) = 0
N.N.[Cl][Pt][Cl] [Cisplatin, reference compound] = 1
CC(=O)Oc1ccc(Cl)cc1C(=O)OC[CH]1[CH2][Pt-]1([Cl])([Cl])[Cl].[K+] (stereo not shown) = 0

Q. Say whether its IC50 is strictly beneath 50 µM. Entry: CC(=O)Oc1cccc(F)c1C(=O)OC[CH]1[CH2][Pt-]1([Cl])([Cl])[Cl].[K+] (stereo not shown)
A. 0

Q. # repeat for CC(=O)Oc1cc(C)ccc1C(=O)OCC[CH]1[CH2][Pt-]1([Cl])([Cl])[Cl].[K+] (stereo not shown)
A. 1

Q. # repeat for CC(=O)Oc1c(Cl)cccc1C(=O)OCC[CH]1[CH2][Pt-]1([Cl])([Cl])[Cl].[K+] (stereo not shown)
A. 1

Q. # repeat for CC(=O)Oc1cccc(C)c1C(=O)OCC[CH]1[CH2][Pt-]1([Cl])([Cl])[Cl].[K+] (stereo not shown)
A. 1

Q. # repeat for CC(=O)Oc1ccc(Cl)cc1C(=O)OCC[CH]1[CH2][Pt-]1([Cl])([Cl])[Cl].[K+] (stereo not shown)
A. 1

Q. # repeat for CC(=O)Oc1ccc(F)cc1C(=O)OCC[CH]1[CH2][Pt-]1([Cl])([Cl])[Cl].[K+] (stereo not shown)
A. 0

Q. # repeat for CC(=O)Oc1ccc(C)cc1C(=O)OC[CH]1[CH2][Pt-]1([Cl])([Cl])[Cl].[K+] (stereo not shown)
A. 0

Q. # repeat for CC(=O)Oc1c(F)cccc1C(=O)OCC[CH]1[CH2][Pt-]1([Cl])([Cl])[Cl].[K+] (stereo not shown)
A. 0

Q. # repeat for CC(=O)Oc1cc(C)ccc1C(=O)OC[CH]1[CH2][Pt-]1([Cl])([Cl])[Cl].[K+] (stereo not shown)
A. 0

Q. # repeat for CC(=O)Oc1cccc(Cl)c1C(=O)OC[CH]1[CH2][Pt-]1([Cl])([Cl])[Cl].[K+] (stereo not shown)
A. 0

Q. # repeat for CC(=O)Oc1cccc(Cl)c1C(=O)OCC[CH]1[CH2][Pt-]1([Cl])([Cl])[Cl].[K+] (stereo not shown)
A. 1
